Data credit: ChEMBL document CHEMBL2331140

Test: Selectivity index, ratio of IC50 for recombinant human MAO-A to IC50 for recombinant human MAO-B
Entries annotated with measured Ratio IC50

smilesData: C#CCN(C)[C@H](C)Cc1ccc(OCCCCCCNc2c3c(nc4cc(Cl)ccc24)CCCC3)cc1
Ratio IC50: 1

smilesData: C#CCN(C)[C@H](C)Cc1ccc(OCCCCNc2c3c(nc4ccccc24)CCCC3)cc1
Ratio IC50: 0.8

smilesData: C#CCN(CCCCCCNc1c2c(nc3ccccc13)CCCC2)[C@H](C)Cc1ccc(OC)cc1
Ratio IC50: 1.9

###

Here, each record is paired with measured pIC50 data.
Molecular target: Amine oxidase [flavin-containing] B (Homo sapiens, UniProt P27338)
Sequence (P27338 whole entry): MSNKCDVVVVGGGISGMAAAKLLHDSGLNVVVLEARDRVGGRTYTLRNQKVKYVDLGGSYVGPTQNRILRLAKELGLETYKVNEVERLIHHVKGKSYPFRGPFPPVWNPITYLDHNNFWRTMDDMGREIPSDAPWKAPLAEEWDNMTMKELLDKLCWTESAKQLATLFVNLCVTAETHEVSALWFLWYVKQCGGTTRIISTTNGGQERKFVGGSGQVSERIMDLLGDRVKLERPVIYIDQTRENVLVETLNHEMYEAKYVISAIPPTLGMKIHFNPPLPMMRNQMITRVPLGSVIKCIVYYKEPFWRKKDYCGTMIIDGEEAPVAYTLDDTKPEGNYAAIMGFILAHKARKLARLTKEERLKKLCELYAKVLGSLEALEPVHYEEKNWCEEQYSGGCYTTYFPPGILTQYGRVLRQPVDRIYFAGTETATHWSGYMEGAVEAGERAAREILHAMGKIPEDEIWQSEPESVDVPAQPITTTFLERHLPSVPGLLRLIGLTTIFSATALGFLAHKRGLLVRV
pIC50: −log10 of the molar value.

smilesData: C#CCN(C)[C@H](C)Cc1ccc(OCCCCCCCCCCNc2c3c(nc4ccccc24)CCCC3)cc1
pIC50: 6.46
//
smilesData: C#CCN(C)[C@H](C)Cc1ccc(OCCCCCNc2c3c(nc4cc(Cl)ccc24)CCCC3)cc1
pIC50: 5.21
//
smilesData: C#CCN(C)[C@H](C)Cc1ccc(OCCCCCCNc2c3c(nc4ccccc24)CCCC3)cc1
pIC50: 6.68
//
smilesData: C#CCN(C)[C@H](C)Cc1ccc(OCCCNc2c3c(nc4cc(Cl)ccc24)CCCC3)cc1
pIC50: 4.96
//
smilesData: C#CCN(C)[C@H](C)Cc1ccc(OCCCCCCCCNc2c3c(nc4ccccc24)CCCC3)cc1
pIC50: 6.78
//
smilesData: C#CCN(C)[C@H](C)Cc1ccc(OCCNc2c3c(nc4ccccc24)CCCC3)cc1
pIC50: 6.16
//
smilesData: C#CCN(C)[C@H](C)Cc1ccc(OCCCNc2c3c(nc4ccccc24)CCCC3)cc1
pIC50: 5.35
//
smilesData: C#CCN(C)[C@H](C)Cc1ccc(OCCCCCCCCNc2c3c(nc4cc(Cl)ccc24)CCCC3)cc1
pIC50: 6.89
//
smilesData: C#CCN(C)[C@H](C)Cc1ccc(OCCCCNc2c3c(nc4ccccc24)CCCC3)cc1
pIC50: 5.07
